- TEST SUMMARY: Diazepam solubility in excipients
- Assay type: physicochemical
- SETUP CONDITIONS: diazepam (API) in the excipient
Reported values of API Solubility mg/gm total mix for individual entries
Numbers only; they are read as mg/gm total mix.

CCCCCCCC/C=C\CCCCCCCC(=O)OCC(O)CO (stereo not shown) [Glycerol Monooleate]; 71

Switching to the query record.
Entry OCc1ccccc1 : reported API Solubility mg/gm total mix = ? 400
